IC50 values, listed per item
system: NCI-H526 cells; experiment: Cell growth inhibition assay (CellTiter-Glo); type: cell-based; conditions: Homo sapiens, NCI-H526, 168 h; 7 days, estimated from four-parameter curve
Express the result in nM but write the number alone.

COMPOUND | TARGET_OR_SYSTEM | IC50 [nM]
CC(C)OC(=O)Nc1ccc(-c2cnc(C3CCC(NC(=O)OC(C)C)CC3)s2)c(S(=O)(=O)C2CC2)c1 (centres unmarked) [Cpd-2] | NCI-H526 cells | 353

For the next question, use this compound.
// query // lookup IC50 for O=C(c1cc(Cc2n[nH]c(=O)c3ccccc23)ccc1F)N1CCN(C(=O)C2CC2)CC1 [Olaparib, olaparib]
// result 3910
